Recorded values, source ChEMBL document CHEMBL1129682.

Listed here are compounds together with their documented Ki.
- assaySystem: Serotonin 2 (5-HT2) receptor (Rattus norvegicus, UniProt P30994+P08909+P14842)
- experimentDescription: Binding affinity of [3H]ketanserin towards 5-hydroxytryptamine 2 receptor in cloned mammalian receptor expressed in cultured cells or from rat whole brain.
- Type: cell-based
Field format: number, assumed nM, no unit text.

Some solved cases for reference:
In [3]: df
Out[3]:
                                   compound                               assaysystem  measurementtype  observedvalue
0  COc1ccc(N2CCN(CCC3OCCc4ccccc43)CC2)cc1 (stereo unspecified)  Serotonin 2 (5-HT2) receptor (Rattus norvegicus, UniProt P30994+P08909+P14842)               Ki             76
1  COc1ccc(N2CCN(CC[C@H]3OCCc4ccccc43)CC2)cc1  Serotonin 2 (5-HT2) receptor (Rattus norvegicus, UniProt P30994+P08909+P14842)               Ki             30
2  Fc1ccc(N2CCN(CCC3OCCc4ccccc43)CC2)cc1 (stereo unspecified)  Serotonin 2 (5-HT2) receptor (Rattus norvegicus, UniProt P30994+P08909+P14842)               Ki            5.8
3  COc1cc2c(cc1OC)C(CCN1CCN(c3ccc(F)cc3)CC1)OCC2 (stereo unspecified)  Serotonin 2 (5-HT2) receptor (Rattus norvegicus, UniProt P30994+P08909+P14842)               Ki            2.1

// switching to the query compound
Look up Ki: COc1ccc(N2CCN(CC[C@@H]3OCCc4ccccc43)CC2)cc1
28

----------
Listed here are molecules together with their documented inhibition.
- assaySystem: Adrenergic receptor alpha-2 (Rattus norvegicus) (UniProt P22086+P19328+P22909)
- experimentDescription: […] against binding of [3H]clonidine to cloned mammalian Alpha-2 adrenergic receptor expressed in cultured cells or from rat whole brain at 1 uM
Field format: number, assumed %, no unit text.

Some solved cases for reference:
>>> df
                                   molecule  unitstext  observedvalue
0  COc1cc2c(cc1OC)C(CCN1CCN(c3ccc(F)cc3)CC1)OCC2 (centres undefined)          %             75
1  COc1ccc(N2CCN(CC[C@@H]3OCCc4ccccc43)CC2)cc1          %              9
2  NS(=O)(=O)c1ccc(N2CCN(CC[C@H]3OCCc4ccccc43)CC2)cc1          %             15

// switching to the query molecule
Look up inhibition: COc1ccc(N2CCN(CC[C@H]3OCCc4ccccc43)CC2)cc1
0

----------
- assaySystem: D(4) dopamine receptor (Rattus norvegicus)
- Sequence (P30729 whole entry): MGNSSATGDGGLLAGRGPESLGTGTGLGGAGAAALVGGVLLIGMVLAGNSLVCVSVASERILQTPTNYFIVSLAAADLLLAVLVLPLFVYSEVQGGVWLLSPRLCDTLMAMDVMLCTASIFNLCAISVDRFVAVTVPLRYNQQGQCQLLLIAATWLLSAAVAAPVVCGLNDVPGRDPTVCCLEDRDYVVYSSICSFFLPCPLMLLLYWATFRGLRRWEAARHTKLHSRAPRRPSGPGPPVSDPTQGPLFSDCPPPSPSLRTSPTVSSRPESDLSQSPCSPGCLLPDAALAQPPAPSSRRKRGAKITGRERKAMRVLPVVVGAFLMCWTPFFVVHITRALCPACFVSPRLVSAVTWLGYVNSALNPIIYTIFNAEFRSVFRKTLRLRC
- experimentDescription: Binding affinity of [3H]spiperone towards Dopamine receptor D4 expressed in cultured cells or from rat whole brain.
measurementType: pKi
# pKi is unitless: minus log10 of the molar concentration; print number only

Look up pKi: Fc1ccc(N2CCN(CCC3OCCc4ccccc43)CC2)cc1 (stereo not drawn)
8.52
